# Test system: MDA-MB-231
# MEASUREMENT_NOTES: NCI tumour cell line growth inhibition, 48 h
Activity calls are given as the source filed them. Cut-off read from the data, not from the text of the source: active = GI50 up to about 1.1 µM and inactive = higher.
Outcomes: t = active, f = inactive

COc1cc(CC(C)=O)cc(OC)c1	f
C#CCC(O)c1ccc(OC)c(OCc2ccccc2)c1 (configuration not stated)	f
N#Cc1nsnc1-c1nc(-c2nsnc2C#N)nc(-c2nsnc2C#N)n1	f
O=c1cc(-c2ccccc2F)[nH]c2cc3c(cc12)OCO3	t
C/C(=N/NC(=S)Nc1cccc(Cl)c1)c1ccccn1	t
Cc1nc2ccccc2nc1N1CCCC1	f
O=C1/C(=C/C=C/c2ccccc2)CCC1CNc1ccccc1 (configuration not stated)	f
Oc1[nH]c(NCc2ccc(Cl)cc2)nc2ncnc1-2	f
CC1(C)C2CCC1C(=O)[C@@]1(C=CC(=O)CC1)C2 (some centres not stated)	f
CCOc1ccccc1/N=C\c1c2ccccc2cc2ccccc12	f
O=C(O)C(NCc1ccccc1)C(NCc1ccccc1)C(=O)O (configuration not stated)	f
CCOC(=O)c1c(NCc2ccccc2)n(-c2ccccc2)c(=S)n(-c2ccccc2)c1=O	f
